Recorded IC50 for compounds tested on Plasminogen activator inhibitor 1 (Homo sapiens), drawn from a number of studies.
Each record is given Fulfilled if its reported IC50 is strictly below 20 µM. Records at or above 20 µM are given Not fulfilled.

| compound | label class |
| --- | --- |
| CCCCCc1c(-c2ccc3nc(C(F)(F)F)cc(OCc4nnn[nH]4)c3c2)oc2ccccc12 | Not fulfilled |
| Cc1cccc(-c2ccc3c(c2)c2c(n3Cc3ccc(C(C)(C)C)cc3)COC(=O)C2=O)c1 | Not fulfilled |
| CCCCCc1c(-c2ccccc2)n(Cc2ccccc2)c2ccc(-c3ccc(OCc4nnn[nH]4)cc3)cc12 | Fulfilled |
| CCCCc1oc2ccccc2c1C(=O)N(C)Cc1ccc(-c2ccc(OCC(=O)O)c(Br)c2)cc1 | Fulfilled |
| CCCCC(=O)c1c(-c2ccc3cc(OC(Cc4ccccc4)C(=O)O)ccc3c2)oc2ccccc12 (centres unmarked) | Fulfilled |
| O=C(O)c1ccc(OCCCO/N=C/c2ccc(C(F)(F)F)cc2)cc1NC(=O)c1ccccc1C(F)(F)F | Not fulfilled |
| O=C(Nc1cc(OCCCO/N=C/c2ccc(C(F)(F)F)cc2)ccc1C(=O)O)c1ccc(C(F)(F)F)cc1 | Fulfilled |
| CC(C)CC(=O)c1c(-c2ccc3c(Br)c(OCc4nnn[nH]4)ccc3c2)oc2ccccc12 | Fulfilled |
| O=C(Nc1cc(OCCCO/N=C/c2ccc(C(F)(F)F)cc2)ccc1C(=O)O)c1cc(C(F)(F)F)cc(C(F)(F)F)c1 | Fulfilled |
| CCCCCc1c(-c2ccc3cc(OCc4nnn[nH]4)ccc3c2)n(Cc2ccccc2C(F)(F)F)c2ccccc12 | Fulfilled |
| Cc1c(-c2ccccc2)n(Cc2ccccc2)c2cccc(-c3ccc(OCC(=O)O)cc3)c12 | Not fulfilled |
| CCCCC(=O)c1c(-c2ccc3c(C)c(OCc4nnn[nH]4)ccc3c2)oc2ccccc12 | Not fulfilled |
| CCCCCc1c(-c2ccc3cc(OCc4nnn[nH]4)ccc3c2)oc2ccccc12 | Fulfilled |
| O=C(O)C(CCCCCOc1ccc2cc(-c3nc(-c4ccccc4)c(-c4ccccc4)o3)ccc2c1)C(=O)O | Fulfilled |
| CC(C)(C)c1cc(OCc2ccc(F)cc2)nc(-c2ccc3cc(OCCCCCC(C(=O)O)C(=O)O)ccc3c2)n1 | Fulfilled |
| CCCCc1oc2ccccc2c1/C=N/OCCOc1ccc(C(=O)O)cc1Cl | Not fulfilled |
| CCCCCc1c(-c2ccc3cc(OCc4nnn[nH]4)ccc3c2)n(Cc2ccc(C(C)(C)C)cc2)c2ccccc12 | Not fulfilled |
| CC(C)(C)c1ccc(/C=N/OCCCOc2ccc(C(=O)O)c(NC(=O)c3ccccc3C(F)(F)F)c2)cc1 | Fulfilled |
| CCCCCc1c(-c2ccccc2)n(Cc2ccccc2)c2ccc(-c3ccc(OCC(=O)O)cc3)cc12 | Fulfilled |
| Cc1c(-c2ccccc2)n(Cc2ccccc2)c2ccc(-c3ccc(OCc4nnn[nH]4)cc3)cc12 | Fulfilled |
| Cc1c(C)n(Cc2ccccc2)c2ccc(-c3ccc(OCC(=O)O)cc3)cc12 | Not fulfilled |
| Cc1c(Cc2ccccc2)c2cc(-c3ccc(OCc4nnn[nH]4)cc3)ccc2n1Cc1ccccc1 | Not fulfilled |
| O=C(O)C(=O)c1cn(Cc2ccccc2)c2ccc(Oc3ccc(C(F)(F)F)cc3Cl)cc12 | Fulfilled |
| CCCCCc1c(-c2ccccc2)n(C)c2ccc(-c3ccc(OCc4nnn[nH]4)cc3)cc12 | Not fulfilled |
| O=C(CC1CCCC1)c1c(-c2ccc3c(Br)c(OCc4nnn[nH]4)ccc3c2)oc2ccccc12 | Fulfilled |
| O=C(O)COc1ccc(-c2ccc3c(c2)c(Cc2ccccc2)c(-c2ccccc2)n3Cc2ccccc2)cc1 | Fulfilled |
| N#Cc1ccc(Nc2nc(-c3ccc(-c4ccccc4)cc3)cs2)cc1 | Fulfilled |
| CCCCCc1c(-c2ccc3cc(OCc4nnn[nH]4)ccc3c2)n(Cc2ccccc2)c2ccccc12 | Fulfilled |
| O=C(O)c1ccc(OCCCO/N=C/c2cc3ccccc3n2Cc2ccccc2)cc1O | Not fulfilled |
| c1ccc(-c2ccc(-c3ccc4cc(OCc5nnn[nH]5)ccc4c3)[nH]2)cc1 | Not fulfilled |
| O=C(O)COc1ccc2cc(-c3oc4ccccc4c3C(=O)CC3CCCC3)ccc2c1Br | Fulfilled |
| CCCCC(=O)c1c(-c2ccc3c(Cl)c(OCC(=O)O)ccc3c2)oc2ccccc12 | Fulfilled |
| O=C1OCc2[nH]c3ccc(OCc4ccccc4)cc3c2C1=O | Not fulfilled |
| CCCCCc1c(-c2ccc3c(Br)c(OCC(=O)O)ccc3c2)n(C)c2ccccc12 | Fulfilled |

----------
Several reports have described IC50 for Plasminogen activator inhibitor 1 (Homo sapiens); a selection of those results is presented here.
value kind: IC50 (µM)

| molecule | tested on | measurement units | bound type | obs value |
| --- | --- | --- | --- | --- |
| CCCCCc1c(-c2ccc3c(Br)c(OCC(=O)O)ccc3c2)oc2ccccc12 | Plasminogen activator inhibitor 1 (Homo sapiens) | µM | = | 6.54 |
| Cc1c(Cc2ccccc2)c2cc(-c3ccc(OCC(=O)O)cc3)ccc2n1C | Plasminogen activator inhibitor 1 (Homo sapiens) | µM | = | 38 |
| Cn1c2c(c3cc(-c4ccc(OCc5nnn[nH]5)cc4)ccc31)CCCC2 | Plasminogen activator inhibitor 1 (Homo sapiens) | µM | = | 6.1 |
| CC(C)(C)c1cc(OCC2CCCCC2)nc(-c2ccc3cc(OCCCCCC(C(=O)O)C(=O)O)ccc3c2)n1 | Plasminogen activator inhibitor 1 (Homo sapiens) | µM | = | 0.32 |
| Cc1ccc2c(c1)c(C(=O)C(=O)O)cn2-c1ccc(OCc2cccc(Cl)c2)cc1 | Plasminogen activator inhibitor 1 (Homo sapiens) | µM | > | 25 |
| CCCCc1oc2ccccc2c1/C=N/OCCCOc1ccc(CC(=O)O)cc1 | Plasminogen activator inhibitor 1 (Homo sapiens) | µM | = | 31.4 |
| O=C(O)C(CCCCCOc1ccc2cc(-c3nc4ccc(OCC5CCCCC5)cc4o3)ccc2c1)C(=O)O | Plasminogen activator inhibitor 1 (Homo sapiens) | µM | = | 0.39 |
| O=C(O)C(Cc1ccccc1)Oc1ccc2cc(-c3ccc(-c4ccccc4)[nH]3)ccc2c1 (stereo not shown) | Plasminogen activator inhibitor 1 (Homo sapiens) | µM | = | 44.4 |
| CC(C)(C)c1cc(OCc2ccccc2Cl)nc(-c2ccc3cc(OCCCCCC(C(=O)O)C(=O)O)ccc3c2)n1 | Plasminogen activator inhibitor 1 (Homo sapiens) | µM | = | 0.22 |
| CC(C)(C)c1ccc(C(=O)Nc2cc(OCCCO/N=C/c3cn(Cc4ccccc4)c4ccccc34)ccc2C(=O)O)cc1 | Plasminogen activator inhibitor 1 (Homo sapiens) | µM | = | 11.8 |
| CCCCC(=O)c1c(-c2ccc3c(Cl)c(OCc4nnn[nH]4)ccc3c2)oc2ccccc12 | Plasminogen activator inhibitor 1 (Homo sapiens) | µM | = | 14 |
| O=C(Nc1cc(OCCCO/N=C/c2ccc(C(F)(F)F)cc2)ccc1C(=O)O)c1ccc(OC(F)(F)F)cc1 | Plasminogen activator inhibitor 1 (Homo sapiens) | µM | = | 15.9 |
| CC(C)(C)c1ccc(/C=N/OCCOc2ccc(C(=O)O)c(OC(=O)c3ccc(C(C)(C)C)cc3)c2)cc1 | Plasminogen activator inhibitor 1 (Homo sapiens) | µM | = | 17.8 |
| CC(C)(C)c1ccc(/C=N/OCCCOc2ccc(C(=O)O)c(NC(=O)c3cc(C(F)(F)F)cc(C(F)(F)F)c3)c2)cc1 | Plasminogen activator inhibitor 1 (Homo sapiens) | µM | = | 15.7 |
| Cc1ccc(Cn2c3c(c4cc(OCc5ccccc5)ccc42)C(=O)C(=O)OC3)cc1 | Plasminogen activator inhibitor 1 (Homo sapiens) | µM | = | 26.6 |
| CC(C)(C)CC(=O)c1c(-c2ccc3cc(OCC(=O)O)ccc3c2)oc2ccccc12 | Plasminogen activator inhibitor 1 (Homo sapiens) | µM | = | 8.7 |
| CCCCc1oc2ccccc2c1/C=N/OCCCOc1ccc(C(=O)O)c(O)c1 | Plasminogen activator inhibitor 1 (Homo sapiens) | µM | = | 19.2 |
| Cc1c(-c2ccccc2)n(C)c2ccc(-c3ccc(OCc4nnn[nH]4)cc3)cc12 | Plasminogen activator inhibitor 1 (Homo sapiens) | µM | = | 16.5 |
| CCCCc1oc2ccccc2c1-c1ncc(-c2ccc3cc(OC(Cc4ccccc4)C(=O)O)ccc3c2)o1 (stereo not shown) | Plasminogen activator inhibitor 1 (Homo sapiens) | µM | = | 26.6 |
| O=C(O)C(=O)c1cn(-c2cccc(OCc3c(F)c(F)c(C(F)(F)F)c(F)c3F)c2)c2ccc(Cl)cc12 | Plasminogen activator inhibitor 1 (Homo sapiens) | µM | > | 25 |
| Cc1ccc(C)n1-c1ccc2c(c1)c(-c1ccccc1)c(C(=O)N[C@@H](CC(C)C)C(=O)O)n2Cc1ccccc1 | Plasminogen activator inhibitor 1 (Homo sapiens) | µM | = | 12.9 |
| COc1ccc(-c2cc(OCc3ccccc3F)nc(-c3ccc4cc(OCCCC(C(=O)O)C(=O)O)ccc4c3)n2)cc1 | Plasminogen activator inhibitor 1 (Homo sapiens) | µM | = | 0.86 |
| O=C(O)COc1ccc2cc(-c3oc4ccccc4c3-c3ccccc3)ccc2c1-c1ccccc1 | Plasminogen activator inhibitor 1 (Homo sapiens) | µM | = | 3.85 |
| CCCCCc1c(-c2ccc3cc(OCc4nnn[nH]4)ccc3c2)n(C)c2ccccc12 | Plasminogen activator inhibitor 1 (Homo sapiens) | µM | = | 16.2 |
| CN(Cc1ccc(-c2ccc(OCc3nnn[nH]3)c(Br)c2)cc1)C(=O)c1cn(C)c2ccccc12 | Plasminogen activator inhibitor 1 (Homo sapiens) | µM | = | 46.3 |
| c1ccc(-c2ncc(-c3ccc4cc(OCc5nnn[nH]5)ccc4c3)o2)cc1 | Plasminogen activator inhibitor 1 (Homo sapiens) | µM | = | 68.4 |
| O=C(O)c1[nH]c2ccc(NS(=O)(=O)c3ccc(-c4ccccc4)cc3)cc2c1-c1ccccc1 | Plasminogen activator inhibitor 1 (Homo sapiens) | µM | = | 19.5 |
| CN(Cc1ccc(-c2ccc(OCc3nnn[nH]3)c(Br)c2)cc1)C(=O)c1cn(Cc2ccccc2)c2ccccc12 | Plasminogen activator inhibitor 1 (Homo sapiens) | µM | = | 30 |
| O=C(O)CNC(=O)C(=O)c1cn(Cc2ccccc2)c2ccc(-c3ccc(OC(F)(F)F)cc3)cc12 | Plasminogen activator inhibitor 1 (Homo sapiens) | µM | = | 28 |
| O=C(O)c1c(-c2ccccc2)c2cc(NS(=O)(=O)c3ccccc3)ccc2n1Cc1ccc(-c2ccccc2)cc1 | Plasminogen activator inhibitor 1 (Homo sapiens) | µM | = | 28 |
| Cc1c(-c2ccccc2)n(C)c2cccc(-c3ccc(OCc4nnn[nH]4)cc3)c12 | Plasminogen activator inhibitor 1 (Homo sapiens) | µM | = | 32.8 |
